Tested on: Wolbachia pipientis
Experiment: Anti-Wolbachia Cell-Based Screen
Format: functional
Set-up: scale not given: in the data most compounds retested in dose-response had high values
Details: 5 µM
Screen size: about 48,000 compounds; about 13,000 (27%) showed an effect of 50% or more. Some of the results follow.

>  <compound>
Cc1noc(-c2ccnc(N3CCN(C4CCOCC4)CC3)c2)n1

>  <measured.target>
Wolbachia pipientis

>  <display.unit>
%

>  <Percent Effect>
8.096

$$$$
>  <compound>
O=C(c1ccc(NC2CC2)nc1)N1CCCC(n2cccn2)C1 (stereo unspecified)

>  <measured.target>
Wolbachia pipientis

>  <display.unit>
%

>  <Percent Effect>
-7.453

$$$$
>  <compound>
Cc1cc2c(C)cc(O)cc2c(=O)o1

>  <measured.target>
Wolbachia pipientis

>  <display.unit>
%

>  <Percent Effect>
-3.203

$$$$
>  <compound>
COCCNC(=O)Cn1nc(C(C)C)c2cnn(C(C)(C)C)c2c1=O

>  <measured.target>
Wolbachia pipientis

>  <display.unit>
%

>  <Percent Effect>
-0.4126

$$$$
>  <compound>
CSc1ncccc1C(=O)NCCC(O)c1cc(C)oc1C (stereo unspecified)

>  <measured.target>
Wolbachia pipientis

>  <display.unit>
%

>  <Percent Effect>
-1.719

$$$$
>  <compound>
Cc1noc(-c2ccnc(N3CCC(N4CCCC4)CC3)c2)n1

>  <measured.target>
Wolbachia pipientis

>  <display.unit>
%

>  <Percent Effect>
-2.845

$$$$

Source: ChEMBL document CHEMBL3988442
